These entries and their values trace back to patent EP4799619A1.

- study.target: EGR-1 (Homo sapiens)
- experiment.summary: EGR-1 DNA binding activity assay (EDBA)
- Design: made in house
- assay.conditions: EGR-1 DNA binding inhibitory activity; EGR-1 overexpressing cell lysate; absorbance at 450 nm; compound concentration not given

compound | units.symbol | Inhibition Rate (%)
COc1ccccc1NC(=S)N/N=C1\C(=O)Nc2ccccc21 | % | 47.33
O=C1Nc2ccc(Br)cc2/C1=N/NC(=S)Nc1ccccc1 | % | 5.67
COc1cccc(NC(=S)N/N=C2\C(=O)Nc3ccccc32)c1 | % | 27.33
COc1ccc2c(c1)NC(=O)/C2=N\NC(=S)Nc1ccc(F)cc1 | % | 25.90
O=C1Nc2c(F)cccc2/C1=N/NC(=S)Nc1ccc(F)cc1 | % | 33.80
O=C1Nc2cc(Br)ccc2/C1=N/NC(=S)Nc1cccc([N+](=O)[O-])c1 | % | 46.33
O=C1Nc2ccc(F)cc2/C1=N/NC(=S)Nc1cccc([N+](=O)[O-])c1 | % | 25.57
N#Cc1ccc(NC(=S)NN)cc1 [Compound 4, N-(4-cyanophenyl)hydrazinethioamide] | % | 16.27
O=C1Nc2cc(Cl)ccc2/C1=N/NC(=S)Nc1ccccc1 | % | 48.07
COc1ccc(NC(=S)N/N=C2\C(=O)Nc3ccc(Br)cc32)cc1 | % | 11.00
O=C1Nc2c(Br)cccc2/C1=N/NC(=S)Nc1ccccc1 | % | 11.33
COc1ccc2c(c1)NC(=O)/C2=N\NC(=S)Nc1cccc(C)c1 | % | 28.67
Cc1ccc2c(c1)/C(=N/NC(=S)Nc1ccccc1)C(=O)N2 [Compound 72] | % | 19.57
O=C1Nc2ccc(OC(F)(F)F)cc2/C1=N/NC(=S)Nc1cccc([N+](=O)[O-])c1 | % | 37.37
COc1ccc2c(c1)NC(=O)/C2=N\NC(=S)Nc1ccccc1OC | % | 42.00
NNC(=S)Nc1ccc(Br)cc1 [Compound 3, N-(4-bromophenyl)hydrazinethioamide] | % | 20.73
O=C1Nc2c(Br)cccc2/C1=N/NC(=S)Nc1cccc([N+](=O)[O-])c1 | % | 50.33
O=C1Nc2ccc(OC(F)(F)F)cc2/C1=N/NC(=S)Nc1ccccc1 | % | 17.23
NNC(=S)NC(=O)c1ccccc1 [Compound 9, N-(hydrazinocarbonothioyl)benzamide] | % | 42.17
Cc1cccc(NC(=S)N/N=C2\C(=O)Nc3ccc(C)cc32)c1 | % | 39.27
O=C1Nc2ccc(OC(F)(F)F)cc2/C1=N/NC(=S)Nc1ccc(Br)cc1 | % | 42.27
COc1ccc2c(c1)NC(=O)/C2=N\NC(=S)Nc1ccc(C(F)(F)F)cc1 | % | 49.67
COc1ccc(NC(=S)NN)cc1OC | % | 12.67
O=C1Nc2ccc(Br)cc2/C1=N/NC(=S)Nc1cccc([N+](=O)[O-])c1 | % | 52.00
COc1ccc2c(c1)NC(=O)/C2=N\NC(=S)Nc1ccc(C#N)cc1 | % | 76.13
COc1ccc2c(c1)NC(=O)/C2=N\NC(=S)Nc1ccc(Br)cc1 | % | 17.80
COc1ccc2c(c1)NC(=O)/C2=N\NC(=S)Nc1ccccc1 | % | 51.33
NC(=S)N/N=C1\C(=O)Nc2c(Br)cccc21 | % | 53.00
Cc1ccc2c(c1)/C(=N/NC(=S)Nc1ccc(C#N)cc1)C(=O)N2 | % | 29.93
NNC(=S)Nc1ccc(F)cc1 [Compound 2, N-(4-fluorophenyl)hydrazinethioamide] | % | 25.70
NC(=S)N/N=C1\C(=O)Nc2cc(Br)ccc21 | % | 49.00
O=C1Nc2ccc(F)cc2/C1=N/NC(=S)Nc1cccc(C(F)(F)F)c1 | % | 10.00
Cc1ccc2c(c1)/C(=N/NC(=S)Nc1ccccc1)C(=O)N2 [Compound 29] | % | 27.50
CCNC(=S)N/N=C1\C(=O)Nc2ccc(C)cc21 | % | 29.80
O=C1Nc2ccc(F)cc2/C1=N/NC(=S)Nc1ccccc1 | % | 28.97
O=C1Nc2ccc(OC(F)(F)F)cc2/C1=N/NC(=S)Nc1ccc(F)cc1 | % | 33.93
Cc1ccc2c(c1)/C(=N/NC(=S)NCc1ccccc1)C(=O)N2 | % | 40.60

====

- study.target: EGR-1 (Homo sapiens, UniProt P18146)
- Sequence (P18146 whole entry): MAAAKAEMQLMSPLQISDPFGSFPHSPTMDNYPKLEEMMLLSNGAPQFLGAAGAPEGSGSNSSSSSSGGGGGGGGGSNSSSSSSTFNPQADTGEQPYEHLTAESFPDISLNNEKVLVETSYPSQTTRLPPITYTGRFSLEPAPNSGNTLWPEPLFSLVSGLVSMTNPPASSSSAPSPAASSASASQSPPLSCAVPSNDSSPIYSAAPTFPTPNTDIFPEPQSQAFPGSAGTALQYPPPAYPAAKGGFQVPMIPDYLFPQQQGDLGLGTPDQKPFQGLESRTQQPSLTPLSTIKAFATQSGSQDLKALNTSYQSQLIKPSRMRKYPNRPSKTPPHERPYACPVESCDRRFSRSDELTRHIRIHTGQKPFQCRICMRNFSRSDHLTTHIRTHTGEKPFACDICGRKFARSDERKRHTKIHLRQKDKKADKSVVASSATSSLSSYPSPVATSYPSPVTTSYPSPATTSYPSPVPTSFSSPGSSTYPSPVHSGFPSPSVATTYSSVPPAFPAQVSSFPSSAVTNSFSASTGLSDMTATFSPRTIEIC
- experiment.summary: EGR-1 DNA binding activity assay (EDBA)
- Design: made in house
- assay.conditions: EGR-1 DNA binding inhibitory activity; EGR-1 overexpressing cell lysate; absorbance at 450 nm; compound concentration not given

compound | Inhibition Rate (%)
COc1cccc(NC(=S)N/N=C2\C(=O)Nc3ccc(Br)cc32)c1 | 9.00
Cc1ccc2c(c1)/C(=N/NC(=S)Nc1cccc([N+](=O)[O-])c1)C(=O)N2 | 32.70
CCNC(=S)NN [Compound 6, N-ethylhydrazinethioamide] | 27.00
O=C1Nc2c(F)cccc2/C1=N/NC(=S)Nc1ccc(C(F)(F)F)cc1 | 70.20
O=C1Nc2cccc(Cl)c2/C1=N/NC(=S)Nc1ccccc1 | 40.17

====

- study.target: EGR-1 (Homo sapiens, UniProt P18146)
- experiment.summary: EGR-1 DNA binding activity assay (EDBA)
- Design: made in house
- assay.conditions: EGR-1 DNA binding inhibitory activity; EGR-1 overexpressing cell lysate; absorbance at 450 nm; compound concentration not given
- Protocol: In this experiment, the inhibitory effect of the compounds of the present invention on EGR-1 binding activity was evaluated using an EGR-1 DNA binding activity assay (EDBA). […] As: absorbance of a sample prepared by reacting an EGR-1-overexpressing cell lysate with the compound. Ap: absorbance of the sample treated only with EGR-1-overexpressing cell lysate.
The label depends only on Inhibition Rate (%): yes if it is at least 40%, no if it is smaller.

compound | assigned.label
NC(=S)N/N=C1\C(=O)Nc2cccc(Br)c21 | no
O=C1Nc2c(F)cccc2/C1=N/NC(=S)Nc1ccc([N+](=O)[O-])cc1 | yes
O=C1Nc2ccc(F)cc2/C1=N/NC(=S)Nc1ccc(C(F)(F)F)cc1 | no
O=C1Nc2cccc(Br)c2/C1=N/NC(=S)Nc1cccc([N+](=O)[O-])c1 | yes
CC(C)CNC(=S)NN [Compound 8, N-isobutylhydrazinethioamide] | no
COc1ccc2c(c1)NC(=O)/C2=N\NC(=S)NCc1ccccc1 | no
NC(=S)N/N=C1\C(=O)Nc2ccc(Br)cc21 | yes
COc1ccc2c(c1)NC(=O)/C2=N\NC(=S)Nc1cccc(C(F)(F)F)c1 | no
O=C1Nc2ccccc2/C1=N/NC(=S)Nc1cccc([N+](=O)[O-])c1 | no
COc1ccc(NC(=S)N/N=C2\C(=O)Nc3cccc(Br)c32)cc1 | no
Cc1ccc2c(c1)/C(=N/NC(=S)Nc1ccc(F)cc1)C(=O)N2 | no
O=C1Nc2c(F)cccc2/C1=N/NC(=S)Nc1ccc(Br)cc1 | yes
O=C1Nc2cc(Br)ccc2/C1=N/NC(=S)Nc1ccccc1 | no
NNC(=S)Nc1cccc(C(F)(F)F)c1 | no
COc1ccc2c(c1)NC(=O)/C2=N\NC(=S)Nc1cccc([N+](=O)[O-])c1 | yes
Cc1cccc(NC(=S)N/N=C2\C(=O)Nc3ccc(F)cc32)c1 | no
Cc1cccc(NC(=S)NN)c1 [Compound 11, N-(m-tolyl)hydrazinethioamide] | no
NNC(=S)NCc1ccccc1 [Compound 10, N-benzylhydrazinethioamide] | no
COc1cccc(NC(=S)N/N=C2\C(=O)Nc3cccc(Br)c32)c1 | no
COc1ccc(NC(=S)N/N=C2\C(=O)Nc3ccccc32)cc1 | no
O=C1Nc2cccc(Br)c2/C1=N/NC(=S)Nc1ccc([N+](=O)[O-])cc1 | no
O=C1Nc2ccc(F)cc2/C1=N/NC(=S)Nc1ccc(F)cc1 | no
Cc1ccc2c(c1)/C(=N/NC(=S)Nc1ccc(Br)cc1)C(=O)N2 | no
NNC(=S)Nc1ccc(C(F)(F)F)cc1 | no
O=C1Nc2ccc(Br)cc2/C1=N/NC(=S)Nc1ccc([N+](=O)[O-])cc1 | yes
CC(C)NC(=S)NN [Compound 7, N-isopropylhydrazinethioamide] | no
O=C1Nc2ccc(F)cc2/C1=N/NC(=S)Nc1ccc(Br)cc1 | no
O=C1Nc2cccc(Br)c2/C1=N/NC(=S)Nc1ccccc1 | no
COc1ccccc1NC(=S)N/N=C1\C(=O)Nc2cccc(Cl)c21 | yes
O=C1Nc2cc(Br)ccc2/C1=N/NC(=S)Nc1ccc([N+](=O)[O-])cc1 | yes
N#Cc1ccc(NC(=S)N/N=C2\C(=O)Nc3c(F)cccc32)cc1 | yes
O=C1Nc2ccc(F)cc2/C1=N/NC(=S)NCc1ccccc1 | yes
CCNC(=S)N/N=C1\C(=O)Nc2cc(OC)ccc21 | yes
COc1ccccc1NC(=S)N/N=C1\C(=O)Nc2ccc(C)cc21 | yes

====

- study.target: EGR-1 (Homo sapiens, UniProt P18146)
- experiment.summary: EGR-1 DNA binding activity assay (EDBA)
- Parameters: made in house
- assay.conditions: EGR-1 DNA binding inhibitory activity; EGR-1 overexpressing cell lysate; absorbance at 450 nm; compound concentration not given
# Inhibition Rate (%) per entry
reported.metric: Inhibition Rate (%)

compound | reported.metric | measured
Cc1ccc2c(c1)/C(=N/NC(=S)Nc1cccc(C(F)(F)F)c1)C(=O)N2 [Compound 32] | Inhibition Rate (%) | 40.93%
N#Cc1ccc(NC(=S)N/N=C2\C(=O)Nc3ccc(F)cc32)cc1 [Compound 16] | Inhibition Rate (%) | 40.57%
O=C1Nc2ccccc2/C1=N/NC(=S)Nc1ccc(F)cc1 [Compound 57] | Inhibition Rate (%) | 40.10%
